run-description: Stability in human plasma assessed as half life at pH 7.4
Each record here notes measured half-life.
Record the result as a number with its unit.

Consider the following illustrative entries.
| input-smiles | half-life |
| --- | --- |
| CCC1(CC)C(=O)N(c2ccc(CSc3nc4ccccc4s3)cc2)C1=O | 24 min |
| CCC1(CC)C(=O)N(c2ccccc2CSc2nc3ccccc3s2)C1=O | 96 min |

Entry under review: CCC1(CC)C(=O)N(c2ccc(CSc3nc4ccccc4s3)nc2)C1=O . Reported half-life?
12 min

###

run-description: Chemical stability in phosphate buffer assessed as half life at pH 7.4
Type: physicochemical
measurement-kind: half-life (h)
Please give a number only; it is taken to be in h.

Consider the following illustrative entries.
| input-smiles | unit-symbol | recorded-result |
| --- | --- | --- |
| CCC1(CC)C(=O)N(c2ccc(CSc3nc4ccccc4s3)cc2)C1=O | h | 10 |
| CCC1(CC)C(=O)N(c2ccc(CSc3nc4ccccc4s3)nc2)C1=O | h | 13 |

Entry under review: CCC1(CC)C(=O)N(c2ccccc2CSc2nc3ccccc3s2)C1=O . Reported half-life?
37
